pIC50: −log10 of the molar value.
Please find below pIC50 measurements for UniProtKB P50579, combined from several publications.
Sequence (P50579 whole entry, species assumed): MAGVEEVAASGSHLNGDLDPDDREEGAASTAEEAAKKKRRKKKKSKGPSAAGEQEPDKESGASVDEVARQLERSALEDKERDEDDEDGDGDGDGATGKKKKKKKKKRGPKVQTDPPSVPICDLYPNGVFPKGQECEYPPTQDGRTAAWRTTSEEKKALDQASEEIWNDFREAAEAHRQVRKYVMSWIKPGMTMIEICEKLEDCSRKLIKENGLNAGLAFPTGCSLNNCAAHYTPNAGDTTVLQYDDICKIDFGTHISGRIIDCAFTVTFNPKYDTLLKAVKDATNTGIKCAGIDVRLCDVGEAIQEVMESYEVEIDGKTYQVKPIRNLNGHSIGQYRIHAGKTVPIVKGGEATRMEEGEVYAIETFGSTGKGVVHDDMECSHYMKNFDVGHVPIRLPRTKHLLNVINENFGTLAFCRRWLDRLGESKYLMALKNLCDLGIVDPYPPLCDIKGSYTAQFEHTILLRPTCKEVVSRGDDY

- O=C(NCc1cc(F)cc(Cl)c1)[C@]1(O)CCN(CCc2ccccc2)C1=O: 5.00 to 6.00

Input line: Specify pIC50 for CN(C)c1cccc(C(=O)OC[C@H]2CCCN2c2ccnc3ncnn23)c1 and stop.
Output line: 6.00 to 8.00

Input line: Please report pIC50 for the following compound: CC(C)(C)OC(=O)NCCCCN1CCc2cccc(OC[C@H]3CCCN3c3ccnc4ncnn34)c2C1
Output line: 6.00 to 8.00

Input line: Tell me its pIC50 given F[C@H]1C[C@H](COc2cccc3ccccc23)N(c2ncnc3[nH]cnc23)C1 as the entry.
Output line: 5.00 to 6.00
